Listing of recorded remaining binding at 1 µM by entry.
- SUBJECT_OF_TEST: KIT-autoinhibited (Homo sapiens, UniProt P10721)
- Construct: purchased Eurofins DiscoverX KINOMEscan (scanTK)
- Sequence (P10721 26-976): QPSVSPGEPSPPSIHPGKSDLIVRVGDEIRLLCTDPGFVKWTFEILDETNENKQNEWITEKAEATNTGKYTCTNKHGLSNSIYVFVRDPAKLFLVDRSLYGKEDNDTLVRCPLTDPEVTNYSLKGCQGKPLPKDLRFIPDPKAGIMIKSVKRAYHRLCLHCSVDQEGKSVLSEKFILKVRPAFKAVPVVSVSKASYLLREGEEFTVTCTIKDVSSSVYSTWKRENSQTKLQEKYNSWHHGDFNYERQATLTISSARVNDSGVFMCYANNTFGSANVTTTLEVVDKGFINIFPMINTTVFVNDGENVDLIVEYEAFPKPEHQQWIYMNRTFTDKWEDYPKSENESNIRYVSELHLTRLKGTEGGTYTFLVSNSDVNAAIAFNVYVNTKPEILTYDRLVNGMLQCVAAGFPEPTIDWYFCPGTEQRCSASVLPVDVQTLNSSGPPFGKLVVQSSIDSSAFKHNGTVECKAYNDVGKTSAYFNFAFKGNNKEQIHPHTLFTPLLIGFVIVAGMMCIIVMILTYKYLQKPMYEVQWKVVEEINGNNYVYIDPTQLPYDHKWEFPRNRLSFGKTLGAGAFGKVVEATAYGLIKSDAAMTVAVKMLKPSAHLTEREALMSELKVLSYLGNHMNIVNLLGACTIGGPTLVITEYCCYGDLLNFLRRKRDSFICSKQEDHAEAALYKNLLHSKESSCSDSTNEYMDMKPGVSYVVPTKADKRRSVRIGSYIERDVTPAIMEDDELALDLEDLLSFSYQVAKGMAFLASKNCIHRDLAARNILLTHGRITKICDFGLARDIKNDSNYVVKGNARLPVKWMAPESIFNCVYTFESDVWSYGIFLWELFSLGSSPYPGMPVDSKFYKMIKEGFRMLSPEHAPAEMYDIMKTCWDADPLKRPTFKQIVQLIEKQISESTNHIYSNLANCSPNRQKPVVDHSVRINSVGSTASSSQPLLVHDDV
- EXPERIMENTAL_DETAILS: KINOMEscan ScanTK
- Format: binding
- CONDITION_LABEL: @1000nM, read-out: %Control

- COMPOUND: "C=CC(=O)N1CCC[C@@H](n2nc(-c3ccc(Oc4ccccc4)cc3)c3c(N)ncnc32)C1 [Compound 1g, Ibrutinib, reference compound]"
  remaining binding at 1 µM [%]: 88
- COMPOUND: "Cc1cnc(S(C)(=O)=O)nc1N1CCCC(n2nc(-c3ccc(Oc4ccccc4)cc3)c3c(N)ncnc32)C1 (centres unmarked) [Compound 8a]"
  remaining binding at 1 µM [%]: 100
- COMPOUND: "CNC(=O)c1cnc(S(C)(=O)=O)nc1N1CCCC(n2nc(-c3ccc(Oc4ccccc4)cc3)c3c(N)ncnc32)C1 (centres unmarked) [Compound 8d]"
  remaining binding at 1 µM [%]: 100
- COMPOUND: "CCOC(=O)c1cnc(S(C)(=O)=O)nc1N1CCC[C@@H](n2nc(-c3ccc(Oc4ccccc4)cc3)c3c(N)ncnc32)C1 [Compound 8c]"
  remaining binding at 1 µM [%]: 94
- COMPOUND: "COC(=O)c1cnc(S(C)(=O)=O)nc1N1CCCC(n2nc(-c3ccc(Oc4ccccc4)cc3)c3c(N)ncnc32)C1 (centres unmarked) [Compound 8b]"
  remaining binding at 1 µM [%]: 90

---

- SUBJECT_OF_TEST: EGFR(E746-A750del) (Homo sapiens, UniProt P00533, DEL746-750)
- Construct: purchased Eurofins DiscoverX KINOMEscan (scanTK)
- Sequence (P00533 with tags, fused parts or gaps DEL746-750 limits assumed): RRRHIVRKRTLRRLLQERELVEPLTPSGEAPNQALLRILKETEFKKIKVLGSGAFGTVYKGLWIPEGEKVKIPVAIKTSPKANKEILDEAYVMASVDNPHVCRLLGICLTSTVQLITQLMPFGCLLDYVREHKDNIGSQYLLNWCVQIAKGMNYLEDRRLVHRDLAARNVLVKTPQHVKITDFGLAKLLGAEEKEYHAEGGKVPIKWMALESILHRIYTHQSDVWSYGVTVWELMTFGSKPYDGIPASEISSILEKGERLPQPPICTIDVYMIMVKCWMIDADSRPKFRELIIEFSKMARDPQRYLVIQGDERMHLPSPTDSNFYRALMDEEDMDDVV
- EXPERIMENTAL_DETAILS: KINOMEscan ScanTK
- Assay type: binding
- CONDITION_LABEL: read-out: %Control @1000nM
Listing of recorded remaining binding at 1 µM by entry.

- COMPOUND: "CNC(=O)c1cnc(S(C)(=O)=O)nc1N1CCCC(n2nc(-c3ccc(Oc4ccccc4)cc3)c3c(N)ncnc32)C1 (stereo not shown)"
  SUBJECT_OF_TEST: "EGFR(E746-A750del) (Homo sapiens, UniProt P00533, DEL746-750)"
  remaining binding at 1 µM [%]: 85
- COMPOUND: "CCOC(=O)c1cnc(S(C)(=O)=O)nc1N1CCC[C@@H](n2nc(-c3ccc(Oc4ccccc4)cc3)c3c(N)ncnc32)C1"
  SUBJECT_OF_TEST: "EGFR(E746-A750del) (Homo sapiens, UniProt P00533, DEL746-750)"
  remaining binding at 1 µM [%]: 100
- COMPOUND: "Cc1cnc(S(C)(=O)=O)nc1N1CCCC(n2nc(-c3ccc(Oc4ccccc4)cc3)c3c(N)ncnc32)C1 (stereo not shown)"
  SUBJECT_OF_TEST: "EGFR(E746-A750del) (Homo sapiens, UniProt P00533, DEL746-750)"
  remaining binding at 1 µM [%]: 99
- COMPOUND: "COC(=O)c1cnc(S(C)(=O)=O)nc1N1CCCC(n2nc(-c3ccc(Oc4ccccc4)cc3)c3c(N)ncnc32)C1 (stereo not shown)"
  SUBJECT_OF_TEST: "EGFR(E746-A750del) (Homo sapiens, UniProt P00533, DEL746-750)"
  remaining binding at 1 µM [%]: 84
